Reported % block values for a set of binders
# TESTED_ON: T1, human CX3CR1 (human, UniProt P49238 1-355)
# T1 construct: overexpressed on CHO, BA/F3 or HEK293T cells; also called huCX3CR1; hCX3CR1
# T1 sequence: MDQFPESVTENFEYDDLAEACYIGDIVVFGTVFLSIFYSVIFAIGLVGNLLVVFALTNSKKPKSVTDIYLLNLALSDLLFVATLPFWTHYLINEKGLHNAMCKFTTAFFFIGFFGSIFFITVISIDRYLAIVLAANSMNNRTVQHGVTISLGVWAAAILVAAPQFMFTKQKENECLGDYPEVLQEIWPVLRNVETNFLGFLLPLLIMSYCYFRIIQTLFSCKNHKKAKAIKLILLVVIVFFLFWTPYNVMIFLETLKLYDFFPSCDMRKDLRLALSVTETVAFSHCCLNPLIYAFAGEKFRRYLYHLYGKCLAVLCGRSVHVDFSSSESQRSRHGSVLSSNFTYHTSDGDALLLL
# PROCEDURE_SUMMARY: A647-fractalkine competition FACS, BA/F3-huCX3CR1
Report the figure in % without appending any unit label.

CX3CR1BIIPMP54A12 (VHH, also called CX3CR1BII54A12; not shown: C-terminal c-myc and His6 tags) VHH: EVQLVESGGGSVQAGESLRLSCAASGSIFSSNAMAWYRQAPGKQRDLVAVINSVGITKYADSVKGRFTISGDNAKNTVYLQMNSLKPEDTAVYYCTSDARRGWDTRYWGQGTQVTVSS ... 100
CX3CR1BIIPMP11H11 (VHH, family 9; also called CX3CR1BII11H11; not shown: C-terminal c-myc and His6 tags) VHH: EVQLVESGGGLVQAGGSLRLSCVASGRTFSSYAMGWFRQAPGKERAFVAGISGSASRKYYADSVKGRFTVSRDNARNTVYLQMNSLKPEDTAVYYCAASNSYPKVQFDYYGQGTQVTVSS ... 100
CX3CR1BIIPMP18E6 (VHH, family 13; also called 18E06; CX3CR1BII18E06; not shown: C-terminal c-myc and His6 tags) VHH: KVQLVESGGGLVQPGGSLRLSCATSGTIFSNNAMGWYRQAPGKKRDLVASISSSGSTNYADSVKGRFTVSRDNDKNTGYLQMNSLKPEDTGVYYCTLDARRGWNTAYWGQGAQVTVSS ... 71

Form: binder = CX3CR1BIIPMP54D5 (VHH, also called 54D05; CX3CR1BII54D5; not shown: C-terminal c-myc and His6 tags) VHH: EVQLVESGGGSVQAGESLRLSCAASGSIFSSNAMAWYRQAPPGKQRDLVALINSVGITKYADSVKGRFTISSDNAKNTVYLEMNSLKPEDTAVYYCTSDGRRGWDTRYWGQGTQVTVSS ; % block = 99

Just so you know, measured % block for CX3CR1BIIPMP54B3 (VHH, also called 54B03; not shown: C-terminal c-myc and His6 tags) VHH: EVQLVESGGGSVQAGESLRLSCAASGSIFSSNAMAWYRQAPGKQRDLVAAINSVGITKYADSVKGRFTISRDNAKNTVYLQMNSLKPEDTAVYYCTSDPRRGWDTRYWGQGTQVTVSS came out at 99

Entry CX3CR1BIIPMP54D8 (VHH, also called 54D08; CX3CR1BII54D08; not shown: C-terminal c-myc and His6 tags) VHH: EVQLVESGGGSVQAGGSLRLSCAASGSIFSSNAMAWYRQAPGKQRDLVAGINSVGITKYADSVKGRFTISRDNAKNTVYLQMNSLKPEDTAVYYCTSDPRRGWDTRYWGQGTLVTVSS , % block reported as 99
